This collection of values is drawn from patent US8735129B2.

Measured Relative activity (%), listed per entry for reference.
tested on: Bgl-gyp17; assay: Substrate preference with chromogenic oNP and pNP glycosides; type: biochemical, Terrabacter ginsenosidimutans Gsoil 3082; conditions: 2.0 mM substrate, 50 mM sodium phosphate pH 7.0, 37° C.; activity on ONPGlu = 100%
The answer is to be given in %; state only the numeric part.

Study these solved cases before continuing.
O=[N+]([O-])c1ccc(O[C@H]2O[C@H](CO)[C@@H](O)[C@H](O)[C@@H]2O)cc1 [pNP-α-D-mannopyranoside]	0
O=[N+]([O-])c1ccc(O[C@@H]2OC[C@H](O)[C@H](O)[C@H]2O)cc1 [pNP-α-L-arabinopyranoside]	0
O=[N+]([O-])c1ccc(OC2OCC(O)C(O)C2O)cc1 [pNP-β-L-binopyranoside]	0
C[C@@H]1O[C@@H](Oc2ccc([N+](=O)[O-])cc2)[C@H](O)[C@H](O)[C@H]1O [pNP-α-L-rhamnopyranoside]	0
O=[N+]([O-])c1ccc(O[C@@H]2O[C@@H](CO)[C@H](O)[C@H]2O)cc1 [pNP-α-L-arabinofuranoside]	0
C[C@H]1O[C@@H](Oc2ccc([N+](=O)[O-])cc2)[C@H](O)[C@@H](O)[C@H]1O [pNP-β-D-fucopyranoside]	6.98

Switching to the query record.
What does the data say about its Relative activity (%)? Entry: O=[N+]([O-])c1ccccc1O[C@@H]1O[C@H](CO)[C@H](O)[C@H](O)[C@H]1O [oNP-β-D-galatopyranoside]
2.33
